- Test system: NCI-H1975
- Assay Explanation: relative viability (nuclei count vs DMSO), 5 days (fraction); higher = more cells survive
- Conditions: first compound 2.53 µM
Reported relative viability values for the following compounds.

{"Compound": "CCCCCCCCCCCC1=C(O)C(=O)C=C(O)C1=O [Embelin] + NC(=O)Nc1cc(-c2cccc(F)c2)sc1C(=O)N[C@H]1CCCNC1 [AZD7762] (partner 0.2 µM)", "relative viability": 0.806}
{"Compound": "CCCCCCCCCCCC1=C(O)C(=O)C=C(O)C1=O [Embelin] + CCNC(=O)c1noc(-c2cc(C(C)C)c(O)cc2O)c1-c1ccc(CN2CCOCC2)cc1 [Luminespib] (partner 0.01 µM)", "relative viability": 0.293}
{"Compound": "CCCCCCCCCCCC1=C(O)C(=O)C=C(O)C1=O [Embelin] + Cc1nc(NC(=O)N2CCC[C@H]2C(N)=O)sc1-c1ccnc(C(C)(C)C(F)(F)F)c1 [Alpelisib] (partner 2 µM)", "relative viability": 0.696}

====

Reported relative viability values for the following compounds.
- System: NCI-H2085
- Assay Explanation: relative viability (nuclei count vs DMSO), 5 days (fraction); higher = more cells survive
- Conditions: first compound 0.4 µM
Measured Metric: relative viability

{"Compound": "COc1cc(N2CCC(C(N)=O)CC2)ccc1Nc1nc(N)c(Cl)c(Nc2ccccc2S(=O)(=O)C(C)C)n1 [HG-5-88-01] + Cc1cc(Nc2cc(N3CCN(C)CC3)nc(Sc3ccc(NC(=O)C4CC4)cc3)n2)n[nH]1 [Tozasertib] (partner 0.1 µM)", "Measured Metric": "relative viability", "Observed Measurement": 0.776}
{"Compound": "Clc1ccc(Nc2nnc(Cc3ccncc3)c3ccccc23)cc1 [Vatalanib] + CC(=O)Nc1cccc(-n2c(=O)n(C3CC3)c(=O)c3c(Nc4ccc(I)cc4F)n(C)c(=O)c(C)c32)c1 [Trametinib] (partner 0.02 µM)", "Measured Metric": "relative viability", "Observed Measurement": 0.645}
{"Compound": "COc1cc(N2CCC(C(N)=O)CC2)ccc1Nc1nc(N)c(Cl)c(Nc2ccccc2S(=O)(=O)C(C)C)n1 [HG-5-88-01] + CS(=O)(=O)N1CCN(Cc2cc3nc(-c4cccc5[nH]ncc45)nc(N4CCOCC4)c3s2)CC1 [Pictilisib] (partner 1 µM)", "Measured Metric": "relative viability", "Observed Measurement": 0.525}
{"Compound": "COc1cc(N2CCC(C(N)=O)CC2)ccc1Nc1nc(N)c(Cl)c(Nc2ccccc2S(=O)(=O)C(C)C)n1 [HG-5-88-01] + C[C@]1(O)C[C@@H](c2nc(-c3ccc4ccc(-c5ccccc5)nc4c3)c3c(N)nccn32)C1 [Linsitinib] (partner 1 µM)", "Measured Metric": "relative viability", "Observed Measurement": 0.809}

====

Reported relative viability values for the following compounds.
- System: HCC-366
- Assay Explanation: relative viability (nuclei count vs DMSO), 5 days (fraction); higher = more cells survive
- Conditions: first compound 0.1265 µM

{"Compound": "C[C@@H]1CN(CC(=O)Nc2ccc3c(c2)Cc2cccc(-c4cc(=O)cc(N5CCOCC5)o4)c2S3)C[C@H](C)O1 + Cc1nc(NC(=O)N2CCC[C@H]2C(N)=O)sc1-c1ccnc(C(C)(C)C(F)(F)F)c1 [Alpelisib] (partner 2 µM)", "relative viability": 0.414}
{"Compound": "C[C@@H]1CN(CC(=O)Nc2ccc3c(c2)Cc2cccc(-c4cc(=O)cc(N5CCOCC5)o4)c2S3)C[C@H](C)O1 + CC(=O)c1c(C)c2cnc(Nc3ccc(N4CCNCC4)cn3)nc2n(C2CCCC2)c1=O [Palbociclib] (partner 0.5 µM)", "relative viability": 0.467}
{"Compound": "Clc1ccc(Nc2nnc(Cc3ccncc3)c3ccccc23)cc1 [Vatalanib] + C[C@@H](Oc1cc(-c2cnn(C3CCNCC3)c2)cnc1N)c1c(Cl)ccc(F)c1Cl [Crizotinib] (partner 1 µM)", "relative viability": 0.383}
{"Compound": "Clc1ccc(Nc2nnc(Cc3ccncc3)c3ccccc23)cc1 [Vatalanib] + CS(=O)(=O)N1CCN(Cc2cc3nc(-c4cccc5[nH]ncc45)nc(N4CCOCC4)c3s2)CC1 [Pictilisib] (partner 1 µM)", "relative viability": 0.196}

// data source = the supplement of paper PMC10307832
